Reported activity at 0.001 µM values follow for various compounds
- Target Under Test: B. taurus (heart) complex I (Bos taurus, UniProt P03887+P17694+P42026)
- Sequence (P03887 whole entry): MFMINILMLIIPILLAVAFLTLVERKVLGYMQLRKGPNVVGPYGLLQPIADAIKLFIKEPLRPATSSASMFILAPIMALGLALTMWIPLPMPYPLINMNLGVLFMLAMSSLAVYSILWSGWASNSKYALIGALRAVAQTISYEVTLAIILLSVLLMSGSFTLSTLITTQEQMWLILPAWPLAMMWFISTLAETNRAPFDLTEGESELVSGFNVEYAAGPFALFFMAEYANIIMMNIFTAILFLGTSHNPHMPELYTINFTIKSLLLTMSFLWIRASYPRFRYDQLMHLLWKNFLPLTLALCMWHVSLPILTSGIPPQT
- Sequence (P17694 34-463): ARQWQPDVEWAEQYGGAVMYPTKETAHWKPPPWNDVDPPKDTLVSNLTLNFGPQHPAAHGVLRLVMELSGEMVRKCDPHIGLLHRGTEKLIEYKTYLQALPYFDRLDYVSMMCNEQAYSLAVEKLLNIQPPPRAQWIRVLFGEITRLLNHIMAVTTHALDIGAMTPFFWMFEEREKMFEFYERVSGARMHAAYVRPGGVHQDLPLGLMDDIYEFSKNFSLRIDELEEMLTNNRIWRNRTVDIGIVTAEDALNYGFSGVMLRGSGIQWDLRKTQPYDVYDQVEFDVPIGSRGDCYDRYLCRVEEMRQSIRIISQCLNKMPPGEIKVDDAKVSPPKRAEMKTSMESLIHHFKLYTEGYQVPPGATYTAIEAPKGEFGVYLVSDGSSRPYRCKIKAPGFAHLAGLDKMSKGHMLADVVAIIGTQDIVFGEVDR
- Sequence (P42026 38-216): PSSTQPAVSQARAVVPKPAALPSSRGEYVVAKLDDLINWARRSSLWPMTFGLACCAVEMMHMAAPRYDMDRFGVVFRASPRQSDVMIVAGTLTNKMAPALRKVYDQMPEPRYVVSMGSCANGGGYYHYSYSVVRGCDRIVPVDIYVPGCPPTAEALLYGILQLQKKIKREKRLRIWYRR
- Experiment: biochemical
- Assay type: biochemical
- Conditions Used: Dose 0.001 µM; read-out: B. taurus mitochondrial complex I activity
Answer in %, number only, no unit symbol.

Clc1ccc(SCCCCn2cnc3ccccc32)cc1 | 96.1
Clc1ccc(Cn2cnc3ccccc32)c(Cl)c1 | 91.7
Brc1ccccc1OCCCCn1cnc2ccccc21 | 108
Cc1ccc(C(C)C)c(OCC(O)Cn2cnc3ccccc32)c1 (stereo not shown) | 95.9

(Q) Report activity at 0.001 µM for `CCCOc1ccc(Cn2cnc3ccccc32)cc1` please.
(A) 102

(Q) Report activity at 0.001 µM for `Clc1ccc(Cn2cnc3ccccc32)cc1Cl` please.
(A) 100

(Q) Consider the compound `CCc1cc(OCCn2cnc3ccccc32)ccc1Cl` and give its measured activity at 0.001 µM.
(A) 88.8

(Q) // returns reported activity at 0.001 µM for input `Cc1ccccc1OCCCn1c(C)nc2ccccc21`
(A) 103

(Q) Requested field: activity at 0.001 µM. Item: `Cc1nc2ccccc2n1CCOc1ccccc1Cl`
(A) 90.3

(Q) Could you tell me which activity at 0.001 µM is on file for `Nc1nc2ccccc2n1Cc1ccc(Cl)cc1` ?
(A) 91

----------
- Target Under Test: M. musculus (heart) complex I (Mus musculus, UniProt P03888+Q91WD5+Q9DC70)
- Sequence (Q91WD5 34-463): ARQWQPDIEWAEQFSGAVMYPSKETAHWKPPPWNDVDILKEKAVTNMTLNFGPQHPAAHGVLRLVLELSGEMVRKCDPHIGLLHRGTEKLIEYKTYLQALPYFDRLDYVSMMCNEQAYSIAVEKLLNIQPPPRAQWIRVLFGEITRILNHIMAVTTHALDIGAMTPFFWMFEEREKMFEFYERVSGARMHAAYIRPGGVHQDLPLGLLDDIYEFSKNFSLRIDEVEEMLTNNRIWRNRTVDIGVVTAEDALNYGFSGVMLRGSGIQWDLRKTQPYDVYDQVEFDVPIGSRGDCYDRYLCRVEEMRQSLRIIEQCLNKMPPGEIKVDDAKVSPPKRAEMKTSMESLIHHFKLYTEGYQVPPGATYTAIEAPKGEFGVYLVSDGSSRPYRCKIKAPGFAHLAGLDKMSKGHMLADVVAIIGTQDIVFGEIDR
- Sequence (Q9DC70 36-224): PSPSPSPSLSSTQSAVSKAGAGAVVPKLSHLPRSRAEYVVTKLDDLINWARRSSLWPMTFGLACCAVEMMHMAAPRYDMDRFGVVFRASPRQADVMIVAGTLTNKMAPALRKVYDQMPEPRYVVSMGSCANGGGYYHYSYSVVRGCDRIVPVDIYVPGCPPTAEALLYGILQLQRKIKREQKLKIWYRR
- Sequence (P03888 whole entry): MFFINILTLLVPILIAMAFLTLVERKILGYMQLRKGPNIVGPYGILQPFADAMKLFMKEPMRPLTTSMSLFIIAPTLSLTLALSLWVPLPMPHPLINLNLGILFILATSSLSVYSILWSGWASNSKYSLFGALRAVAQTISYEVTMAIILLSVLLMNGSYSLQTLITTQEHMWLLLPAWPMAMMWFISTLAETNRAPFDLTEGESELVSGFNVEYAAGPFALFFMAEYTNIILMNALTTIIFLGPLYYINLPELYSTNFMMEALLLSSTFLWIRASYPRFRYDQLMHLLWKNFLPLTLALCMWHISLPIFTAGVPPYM
- Experiment: biochemical
- Format: biochemical
- Conditions Used: M. musculus; dose 3 µM; Mean of replicates; read-out: Complex I activity, dose-response data
Measurement Kind: activity at 3 µM (%)
The answer is to be given in %; state only the numeric part.

Consider the following illustrative entries.
CC(C)Cc1ccc(C(C)c2nc3ccccc3n2C)cc1 (stereo not shown) [NPD8790] | 99.1
COc1cc2c(cc1OC)C(C(C)c1ccc(CC(C)C)cc1)=NCC2 (stereo not shown) [NPD10504] | 75.9
COc1cc2c(cc1OC)C(c1ccc(-c3ccc(Cl)c(Cl)c3)o1)=NCC2 [NPD3577] | 97.4

(Q) Record request: activity at 3 µM value, item COc1cc2c(cc1OC)C(/C=C/c1ccc(N(C)C)cc1)=NCC2 [NPD6303]
(A) 98.6

----------
- Target Under Test: C. elegans (N2) complex I (NADH:ubiquinone oxidoreductase) (Caenorhabditis elegans, UniProt P24887+Q93873+Q94360)
- Sequence (Q94360 17-199): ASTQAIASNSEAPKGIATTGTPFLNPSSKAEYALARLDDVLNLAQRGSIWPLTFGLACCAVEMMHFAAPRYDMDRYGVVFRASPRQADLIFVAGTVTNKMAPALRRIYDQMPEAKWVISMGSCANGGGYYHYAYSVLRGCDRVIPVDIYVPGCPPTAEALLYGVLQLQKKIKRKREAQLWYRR
- Sequence (P24887 whole entry): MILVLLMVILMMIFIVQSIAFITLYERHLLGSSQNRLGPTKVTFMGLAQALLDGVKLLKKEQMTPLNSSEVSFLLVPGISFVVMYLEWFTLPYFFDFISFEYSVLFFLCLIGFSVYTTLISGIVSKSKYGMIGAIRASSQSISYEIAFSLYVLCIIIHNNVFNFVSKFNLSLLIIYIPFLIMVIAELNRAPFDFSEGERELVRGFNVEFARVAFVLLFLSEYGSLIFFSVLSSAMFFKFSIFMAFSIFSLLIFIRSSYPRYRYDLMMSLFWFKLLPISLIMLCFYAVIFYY
- Sequence (Q93873 31-482): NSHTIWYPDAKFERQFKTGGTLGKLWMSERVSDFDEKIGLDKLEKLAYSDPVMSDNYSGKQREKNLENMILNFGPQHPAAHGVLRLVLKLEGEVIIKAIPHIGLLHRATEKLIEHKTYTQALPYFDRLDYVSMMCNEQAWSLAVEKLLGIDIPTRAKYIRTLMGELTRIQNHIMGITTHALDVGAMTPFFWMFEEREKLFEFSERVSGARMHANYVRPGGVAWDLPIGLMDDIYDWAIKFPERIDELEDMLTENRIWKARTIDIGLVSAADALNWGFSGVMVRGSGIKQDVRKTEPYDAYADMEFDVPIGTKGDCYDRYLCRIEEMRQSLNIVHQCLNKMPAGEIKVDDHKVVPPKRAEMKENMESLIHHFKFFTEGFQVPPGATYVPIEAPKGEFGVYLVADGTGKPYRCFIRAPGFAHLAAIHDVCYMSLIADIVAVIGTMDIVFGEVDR
- Experiment: biochemical
- Format: biochemical
- Conditions Used: Dose 0.005 µM; read-out: C. elegans mitochondrial complex I activity
The compounds listed here are annotated with their activity at 0.005 µM.
A number alone suffices; assume %.

Cc1ccc(SCCCn2cnc3ccccc32)cc1 | 101
Cc1ccc(CSCc2nc3ccccc3[nH]2)cc1 | 98.1
CCc1cc(OCCn2cnc3ccccc32)ccc1Cl | 98.8
Clc1ccc(SCCCCn2cnc3ccccc32)cc1 | 91

(Q) Recorded activity at 0.005 µM for `Clc1ccc(OCCn2cnc3ccccc32)c(Cl)c1` , please?
(A) 107

(Q) If you can, please state the reported activity at 0.005 µM value of `Brc1ccccc1OCCCCn1cnc2ccccc21` .
(A) 91.6

----------
- Target Under Test: B. taurus (heart) complex I (Bos taurus, UniProt P03887+P17694+P42026)
- Experiment: biochemical
- Assay type: biochemical
- Conditions Used: Dose 0.005 µM; read-out: B. taurus mitochondrial complex I activity
Measurement Kind: activity at 0.005 µM (%)
State just the number; it will be interpreted in %.

Nc1nc2ccccc2n1Cc1ccc(Cl)cc1 | 88.8

(Q) Look up activity at 0.005 µM for this molecule: `CC(C)Oc1cccc(OCCn2cnc3ccccc32)c1`
(A) 94.5

(Q) Given the entry `Nc1nc2ccccc2n1CCOc1ccc(Br)cc1` , report its measured activity at 0.005 µM.
(A) 96.1

(Q) Entry `Cc1ccc(OCCn2cnc3ccccc32)cc1` has what activity at 0.005 µM?
(A) 98.6

(Q) Using the record for `Clc1ccccc1OCCCCn1cnc2ccccc21` , report its activity at 0.005 µM.
(A) 118
